Test system: DS-mice
experimentNotes: Analgesic activity (Writhing method), phenylquinone-induced writhing in mice
Assay type: in vivo
appliedConditions: Mus musculus, ip, 0.25 h, phenylquinone i.p. 0.2 mg/10 g, 15 minutes, up-and-down method, read-out: Analgesic action, Writhing (ED50)
// ED50 lookup, one value per entry
Record the value in mg/kg, omitting the unit from your answer.

Here is how some compounds turned out for ED50.
compound	measured
CN1CCc2ccc(O)cc2CCc2cccc(O)c2C1.[O-][Cl+3]([O-])([O-])O	50
CN1CCc2ccc(O)cc2CCc2ccc(O)c(O)c2C1	26
COc1ccc2c(c1OC)CN(C)CCc1cc(O)ccc1CC2	22.3

Challenge: Returns the measured ED50 for the input compound. Input: COc1ccc2c(c1OC)CNCCc1cc(O)ccc1CC2
Response given: 26.5

Challenge: ED50 for Br.CN1CCc2cc(O)ccc2CCc2ccc(O)c(O)c2C1 ?
Response given: 75

Challenge: I have this compound here, COc1ccc2c(c1OC)CN(C)CCc1cc(CO)c(O)cc1CC2 , and I need its recorded ED50.
Response given: 45

Challenge: Any idea what ED50 was measured for Cc1c(N(C)C)c(=O)n(-c2ccccc2)n1C [Aminopyrine, reference compound] ?
Response given: 44

Challenge: Look at this compound and give its reported ED50. COc1ccc2c(c1OC)CN(C)CCc1ccc(O)cc1CC2
Response given: 23.2

* * *

experimentNotes: Acute toxicity (mortality, LD50) in mice
appliedConditions: mouse, in vivo; DS-mice; mortality during 72 hours after administration; Bliss' method
This listing pairs compounds with measured LD50 at 72 h.

compound	LD50 at 72 h
COc1ccc2c(c1OC)CN(C)CCc1cc(O)ccc1CC2 [Compound 3]	231 mg/kg
Cc1c(N(C)C)c(=O)n(-c2ccccc2)n1C [Aminopyrine, reference compound]	335 mg/kg
COc1ccc2c(c1OC)CN(C)CCc1ccc(O)cc1CC2 [Compound 2]	54.9 mg/kg

Challenge: Name the reported LD50 at 72 h value associated with the compound COc1ccc2c(c1OC)CNCCc1cc(O)ccc1CC2 [Compound 7]
Response given: 500 mg/kg

Challenge: Can you share its LD50 at 72 h? I mean this compound: Br.CN1CCc2cc(O)ccc2CCc2ccc(O)c(O)c2C1 [Compound 6]
Response given: 300 mg/kg

Challenge: # input compound: CN1CCc2ccc(O)cc2CCc2cccc(O)c2C1.[O-][Cl+3]([O-])([O-])O [Compound 5] ; wanted: its LD50 at 72 h
Response given: 300 mg/kg

Challenge: I am curious: what LD50 at 72 h value has been reported for COc1ccc2c(c1OC)CN(C)CCc1cc(CO)c(O)cc1CC2 [Compound 4] ?
Response given: > 500 mg/kg

Challenge: GET /values?readout=LD50 at 72 h&item= CN1CCc2ccc(O)cc2CCc2ccc(O)c(O)c2C1 [Compound 1]
Response given: 50 to 100 mg/kg

Hello, the source for this data is patent US3932384A, in case you need it.
